Parameter: pKi. Scope: all listed entries.
Molecular target: CB2 receptor (Homo sapiens)
Assay: Radioligand
Details: CB2 (experimental result, activity class), Table 5 overview
pKi: −log10 of the molar value.

COc1cc2c(c(O)c1OC)c(=O)c1ccccc1n2C	< 4.00

# ---- query compound ----
Field pKi (entry C=CC(C)(C)c1cc2cc3c(cc2oc1=O)OC(C(C)(C)OC(C)=O)C3 (centres unmarked) ) reads > 5.00

----------
Parameter: IC50. Scope: all listed entries.
Biological target: AChE EC 3.1.1.7 (Homo sapiens)
Experiment: Spectrophotometric AChE inhibition assay
Format: biochemical
Details: AChE IC50 ± SD, in vitro, modified Ellman's method, 96-well microplate, n = 4

Field IC50 (entry C=CC(C)(C)c1cc2cc3c(cc2oc1=O)OC(C(C)(C)OC(C)=O)C3 (centres unmarked) ) reads > 500 µM

Field IC50 (entry COC(=O)CC(O)c1cc(OC)c(O)c(OC)c1 (centres unmarked) ) reads > 500 µM

Field IC50 (entry COC(=O)C1OC1c1cc(OC)c(O)c(OC)c1 (centres unmarked) ) reads > 500 µM

Field IC50 (entry COc1cc2c(c(O)c1OC)c(=O)c1ccccc1n2C ) reads 34.7 µM

Field IC50 (entry O=c1ccc2cc3ccoc3cc2o1 ) reads > 500 µM

Field IC50 (entry COC(=O)CCc1cc2ccoc2c(OC)c1O ) reads > 500 µM

Field IC50 (entry COc1c2ccoc2cc2oc(=O)ccc12 ) reads > 500 µM

Field IC50 (entry CC(C)=CCOc1c2ccoc2cc2oc(=O)ccc12 ) reads > 500 µM

Field IC50 (entry COc1ccc2ccc(=O)oc2c1 ) reads > 500 µM

Field IC50 (entry COc1c2occc2cc2ccc(=O)oc12 ) reads > 500 µM

Field IC50 (entry COc1cc2ccc(=O)oc2c(OC)c1OC ) reads 396 µM

----------
Experiment: Cytotoxicity on HeLa cell monolayers
Type: cell-based
Settings: human, confluent HeLa cell monolayers
Parameter Measured: CC50 at 72 h

Field CC50 at 72 h (entry COc1cc2c(c(O)c1OC)c(=O)c1ccccc1n2C [Compound 1, arborinine] ) reads > 50 µg/mL

Field CC50 at 72 h (entry COC(=O)C1OC1c1cc(OC)c(O)c(OC)c1 (stereo not shown) [Compound 15] ) reads > 50 µg/mL

Field CC50 at 72 h (entry COC(=O)CCc1cc2ccoc2c(OC)c1O [Compound 16] ) reads > 50 µg/mL

Field CC50 at 72 h (entry COc1cc2ccc(=O)oc2c(OC)c1OC [Compound 13, 6,7,8-trimethoxycoumarin] ) reads > 50 µg/mL

Field CC50 at 72 h (entry Cc1cc(CCCOc2c(C)cc(-c3noc(C(F)(F)F)n3)cc2C)on1 [Pleconaril, reference compound] ) reads 12.6 µg/mL

Field CC50 at 72 h (entry C=CC(C)(C)c1cc2cc3c(cc2oc1=O)OC(C(C)(C)OC(C)=O)C3 (stereo not shown) [Compound 3, rutamarin] ) reads 0.9 µg/mL

Field CC50 at 72 h (entry COC(=O)CC(O)c1cc(OC)c(O)c(OC)c1 (stereo not shown) [Compound 14] ) reads > 50 µg/mL

----------
Target: UniProtKB P34972
Experiment: Radioligand
Details: read-out: hCB2 Ki ± SD; displacement of [3H]CP-55,940, Cheng-Prusoff
pKi: −log10 of the molar value.
Parameter Measured: pKi

Cn1c2c(c(=O)c3ccccc31)CC(O)C(C)(C)O2 (centres unmarked)	< 4.00

# ---- query compound ----
Field pKi (entry COc1c(C[C@@H](O)C(C)(C)O)c(=O)n(C)c2ccccc12 [Compound 10, (−)-edulinine] ) reads < 4.00

----------
Molecular target: AChE EC 3.1.1.7 (Homo sapiens, UniProt P22303)
Sequence (P22303 32-614): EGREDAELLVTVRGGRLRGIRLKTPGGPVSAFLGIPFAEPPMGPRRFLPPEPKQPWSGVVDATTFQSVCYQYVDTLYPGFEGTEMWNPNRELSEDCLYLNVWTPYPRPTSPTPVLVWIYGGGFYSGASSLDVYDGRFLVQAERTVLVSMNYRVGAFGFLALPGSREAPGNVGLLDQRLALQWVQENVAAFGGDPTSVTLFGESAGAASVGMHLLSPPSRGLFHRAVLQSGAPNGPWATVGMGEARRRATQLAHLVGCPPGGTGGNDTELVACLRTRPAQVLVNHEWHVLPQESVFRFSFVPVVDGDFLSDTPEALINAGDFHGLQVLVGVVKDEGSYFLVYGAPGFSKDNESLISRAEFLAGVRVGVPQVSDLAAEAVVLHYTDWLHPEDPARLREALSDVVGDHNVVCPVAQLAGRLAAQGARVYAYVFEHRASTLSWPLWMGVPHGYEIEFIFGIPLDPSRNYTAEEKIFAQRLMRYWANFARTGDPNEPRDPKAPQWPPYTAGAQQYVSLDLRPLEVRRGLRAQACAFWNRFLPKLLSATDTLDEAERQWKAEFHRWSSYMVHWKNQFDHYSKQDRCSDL
Test: Spectrophotometric AChE inhibition assay
Type: biochemical
Details: AChE (experimental result, activity class), Table 5 overview
pIC50: −log10 of the molar value.
Parameter: pIC50. Scope: all listed entries.

Worked examples follow.
COc1cc2c(c(O)c1OC)c(=O)c1ccccc1n2C	> 4.30
O=c1ccc2cc3ccoc3cc2o1	< 3.30
CC(C)=CCOc1c2ccoc2cc2oc(=O)ccc12	< 3.30
COc1c2ccoc2cc2oc(=O)ccc12	< 3.30
COc1c2occc2cc2ccc(=O)oc12	< 3.30

Field pIC50 (entry COc1cc2ccc(=O)oc2c(OC)c1OC ) reads 3.30 to 3.70

Field pIC50 (entry C=CC(C)(C)c1cc2cc3c(cc2oc1=O)OC(C(C)(C)OC(C)=O)C3 (centres unmarked) ) reads < 3.30

Field pIC50 (entry COc1ccc2ccc(=O)oc2c1 ) reads < 3.30

----------
Biological target: CB2 receptor (Homo sapiens, UniProt P34972)
Sequence (P34972 whole entry): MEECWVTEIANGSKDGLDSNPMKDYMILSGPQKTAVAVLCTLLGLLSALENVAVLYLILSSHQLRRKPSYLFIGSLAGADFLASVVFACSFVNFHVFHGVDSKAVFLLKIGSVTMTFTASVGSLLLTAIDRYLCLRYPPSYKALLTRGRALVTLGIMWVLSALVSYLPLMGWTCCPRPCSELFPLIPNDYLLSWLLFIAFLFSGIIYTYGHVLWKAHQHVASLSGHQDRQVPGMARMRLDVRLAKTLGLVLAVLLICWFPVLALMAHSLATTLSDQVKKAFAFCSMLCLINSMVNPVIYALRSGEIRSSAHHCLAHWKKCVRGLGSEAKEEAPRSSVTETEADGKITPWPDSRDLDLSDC
Test: Radioligand
Details: CB2 Ki, displacement of [3H]CP-55,940
Parameter Measured: Ki (µM)
Just the number please, in µM, no unit attached.

Field Ki (entry C=CC(C)(C)c1cc2cc3c(cc2oc1=O)OC(C(C)(C)OC(C)=O)C3 (stereo not shown) [Compound 3, rutamarin] ) reads 7.41

----------
Target: AChE EC 3.1.1.7 (Homo sapiens, UniProt P22303)
Test: Spectrophotometric AChE inhibition assay
Assay type: biochemical
Conditions: read-out: AChE (experimental result, activity class); Table 5 overview
Parameter Measured: IC50

Worked examples follow.
COc1cc2cc(Oc3ccc4ccc(=O)oc4c3)c(=O)oc2cc1OC	> 500 µM
COC(=O)CC(O)c1cc(OC)c(O)c(OC)c1 (stereo not drawn)	> 500 µM

Field IC50 (entry Cn1c2c(c(=O)c3ccccc31)CC(O)C(C)(C)O2 (stereo not drawn) ) reads > 500 µM

Field IC50 (entry COC(=O)CCc1cc2ccoc2c(OC)c1O ) reads > 500 µM

Field IC50 (entry O=c1cc(-c2ccc3c(c2)OCO3)[nH]c2ccccc12 ) reads 50 to 200 µM

Field IC50 (entry COc1c(C[C@@H](O)C(C)(C)O)c(=O)n(C)c2ccccc12 [Compound 10, (−)-edulinine] ) reads > 500 µM

----------
The listing below reports Ki for molecules tested on CB1 receptor (Homo sapiens).
Sequence (P21554 whole entry): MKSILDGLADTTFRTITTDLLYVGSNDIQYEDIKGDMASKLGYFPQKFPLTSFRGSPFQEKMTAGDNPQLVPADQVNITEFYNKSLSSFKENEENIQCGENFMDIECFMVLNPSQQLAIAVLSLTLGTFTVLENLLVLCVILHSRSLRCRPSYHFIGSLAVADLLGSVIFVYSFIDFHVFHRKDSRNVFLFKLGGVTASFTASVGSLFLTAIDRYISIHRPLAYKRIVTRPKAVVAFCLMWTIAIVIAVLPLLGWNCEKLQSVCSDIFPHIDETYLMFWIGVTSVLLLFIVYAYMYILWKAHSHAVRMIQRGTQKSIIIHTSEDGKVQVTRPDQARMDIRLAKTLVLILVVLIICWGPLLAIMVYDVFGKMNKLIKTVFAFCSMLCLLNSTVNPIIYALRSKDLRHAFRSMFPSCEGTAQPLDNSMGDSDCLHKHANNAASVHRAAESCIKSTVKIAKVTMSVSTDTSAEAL

Worked examples follow.
CCCCCc1cc(O)c2c(c1)OC(C)(C)c1ccc(C)cc1-2 [Cannabinol, reference compound]	0.42 µM
C=CC(C)(C)c1cc2cc3c(cc2oc1=O)OC(C(C)(C)OC(C)=O)C3 (stereo not drawn)	> 100 µM

# ---- query molecule ----
Field Ki (entry COc1cc2c(c(O)c1OC)c(=O)c1ccccc1n2C ) reads > 100 µM
